System: Renilla luciferase (RLuc)
Assay: normalised percent inhibition of luminescence (vs positive and negative controls); higher = stronger inhibition
Details: metal salt concentration 0.002 mM; screening conditions buffer
# maps each entry to its normalised percent inhibition
Show the value, then the unit it is measured in.

INSERT INTO measurements (molecule, tested_target, readout_type, reported_result) VALUES
  ('[Cl][Fe][Cl] [iron(II) chloride]', 'Renilla luciferase (RLuc)', 'normalised percent inhibition', '-4.21%'),
  ('O=[N+]([O-])[O-].O=[N+]([O-])[O-].O=[N+]([O-])[O-].[Ga+3] [gallium(III) nitrate]', 'Renilla luciferase (RLuc)', 'normalised percent inhibition', '-6.33%'),
  ('O=[N+]([O-])[O-].[Ag+] [silver nitrate]', 'Renilla luciferase (RLuc)', 'normalised percent inhibition', '10.7%');

Query O=S(=O)([O-])[O-].[Fe+2] [iron(II) sulfate] yields normalised percent inhibition of 2.02%

Query [Cl][Pt-2]([Cl])([Cl])[Cl].[K+].[K+] [potassium tetrachloroplatinate(II)] yields normalised percent inhibition of 13.4%

* * *

System: firefly luciferase (FLuc)
Assay: normalised percent inhibition of luminescence (vs positive and negative controls); higher = stronger inhibition
Settings: metal salt concentration 0.00025 mM; 100 mM HEPES buffer
# maps each entry to its normalised percent inhibition
Show the value, then the unit it is measured in.

Worked set:
INSERT INTO results (molecule, readout_type, reported_result) VALUES
  ('O=[N+]([O-])[O-].O=[N+]([O-])[O-].[Zn+2] [zinc nitrate]', 'normalised percent inhibition', '5.03%'),
  ('O=[N+]([O-])[O-].O=[N+]([O-])[O-].[Cd+2] [cadmium nitrate]', 'normalised percent inhibition', '-6.16%');

Query O=[N+]([O-])[O-].O=[N+]([O-])[O-].[Cu+2] [copper(II) nitrate] yields normalised percent inhibition of 99%

Query [Cl][Pt-2]([Cl])([Cl])[Cl].[K+].[K+] [potassium tetrachloroplatinate(II)] yields normalised percent inhibition of 4.97%

Query O=[N+]([O-])[O-].O=[N+]([O-])[O-].O=[N+]([O-])[O-].[Ga+3] [gallium(III) nitrate] yields normalised percent inhibition of -34.5%

Query [Cl][Fe][Cl] [iron(II) chloride] yields normalised percent inhibition of -33.6%

Query O=[N+]([O-])[O-].O=[N+]([O-])[O-].[Pb+2] [lead(II) nitrate] yields normalised percent inhibition of -19.7%

Query O=S(=O)([O-])[O-].[Fe+2] [iron(II) sulfate] yields normalised percent inhibition of -21.3%

Query O=[N+]([O-])[O-].[Ag+] [silver nitrate] yields normalised percent inhibition of 100%

Query [Cl][Fe]([Cl])[Cl] [iron(III) chloride] yields normalised percent inhibition of -29.2%

Query CC#N.CC#N.CC#N.CC#N.F[B-](F)(F)F.[Cu+] [tetrakis(acetonitrile)copper(I) tetrafluoroborate] yields normalised percent inhibition of 99.9%

Query [Cl][Sn][Cl] [tin(II) chloride] yields normalised percent inhibition of -36.8%

Query O.O.O.O.O.O.O.O=S(=O)([O-])[O-].[Mg+2] [magnesium sulfate] yields normalised percent inhibition of -27.4%

* * *

System: NanoLuc luciferase (NLuc)
Assay: normalised percent inhibition of luminescence (vs positive and negative controls); higher = stronger inhibition
Conditions: metal salt concentration 0.025 mM; 100 mM HEPES buffer
# maps each entry to its normalised percent inhibition
API: value field is a number in %; no unit string.

Worked set:
INSERT INTO results (compound, tested_target, readout_type, unit_label, reported_result) VALUES
  ('O.O.O.O.O.O.O.O=S(=O)([O-])[O-].[Mg+2] [magnesium sulfate]', 'NanoLuc luciferase (NLuc)', 'normalised percent inhibition', '%', -2.3),
  ('O=[N+]([O-])[O-].O=[N+]([O-])[O-].[Cd+2] [cadmium nitrate]', 'NanoLuc luciferase (NLuc)', 'normalised percent inhibition', '%', -1.09),
  ('[Cl][Pt-2]([Cl])([Cl])[Cl].[K+].[K+] [potassium tetrachloroplatinate(II)]', 'NanoLuc luciferase (NLuc)', 'normalised percent inhibition', '%', 4.56),
  ('[Cl][Fe]([Cl])[Cl] [iron(III) chloride]', 'NanoLuc luciferase (NLuc)', 'normalised percent inhibition', '%', 5.06),
  ('[Cl][Fe][Cl] [iron(II) chloride]', 'NanoLuc luciferase (NLuc)', 'normalised percent inhibition', '%', 3.65),
  ('O=[N+]([O-])[O-].[Ag+] [silver nitrate]', 'NanoLuc luciferase (NLuc)', 'normalised percent inhibition', '%', 99.6),
  ('[Cl][Sn][Cl] [tin(II) chloride]', 'NanoLuc luciferase (NLuc)', 'normalised percent inhibition', '%', -3.24),
  ('CC#N.CC#N.CC#N.CC#N.F[B-](F)(F)F.[Cu+] [tetrakis(acetonitrile)copper(I) tetrafluoroborate]', 'NanoLuc luciferase (NLuc)', 'normalised percent inhibition', '%', 5.84),
  ('O=[N+]([O-])[O-].O=[N+]([O-])[O-].[Cu+2] [copper(II) nitrate]', 'NanoLuc luciferase (NLuc)', 'normalised percent inhibition', '%', 59.8);

Query O=S(=O)([O-])[O-].[Fe+2] [iron(II) sulfate] yields normalised percent inhibition of 3.97

* * *

System: Renilla luciferase (RLuc)
Assay: normalised percent inhibition of luminescence (vs positive and negative controls); higher = stronger inhibition
Conditions: metal salt concentration 2.5 mM; 100 mM HEPES buffer
READOUT_TYPE: normalised percent inhibition
Show the value, then the unit it is measured in.

Worked set:
INSERT INTO results (compound, reported_result) VALUES
  ('O=S(=O)([O-])[O-].[Fe+2] [iron(II) sulfate]', '104%'),
  ('[Cl][Fe]([Cl])[Cl] [iron(III) chloride]', '106%'),
  ('[Cl][Pt-2]([Cl])([Cl])[Cl].[K+].[K+] [potassium tetrachloroplatinate(II)]', '97.4%'),
  ('[Cl][Fe][Cl] [iron(II) chloride]', '108%'),
  ('[Cl][Sn][Cl] [tin(II) chloride]', '-45.3%');

Known value: Renilla luciferase (RLuc) normalised percent inhibition of the compound O=[N+]([O-])[O-].[Ag+] [silver nitrate] equals 107%

Known value: Renilla luciferase (RLuc) normalised percent inhibition of the compound O.O.O.O.O.O.O.O=S(=O)([O-])[O-].[Mg+2] [magnesium sulfate] equals -40.4%

Known value: Renilla luciferase (RLuc) normalised percent inhibition of the compound O=[N+]([O-])[O-].O=[N+]([O-])[O-].[Cd+2] [cadmium nitrate] equals 104%

Known value: Renilla luciferase (RLuc) normalised percent inhibition of the compound CC#N.CC#N.CC#N.CC#N.F[B-](F)(F)F.[Cu+] [tetrakis(acetonitrile)copper(I) tetrafluoroborate] equals 106%

* * *

# maps each entry to its normalised percent inhibition
Test system: NanoLuc luciferase (NLuc)
Test: normalised percent inhibition of luminescence (vs positive and negative controls); higher = stronger inhibition
Details: metal salt concentration 0.02 mM; screening conditions buffer
Show the value, then the unit it is measured in.

Known value: NanoLuc luciferase (NLuc) normalised percent inhibition of the molecule [Cl][Fe]([Cl])[Cl] [iron(III) chloride] equals 14.5%

Known value: NanoLuc luciferase (NLuc) normalised percent inhibition of the molecule O=[N+]([O-])[O-].O=[N+]([O-])[O-].[Cd+2] [cadmium nitrate] equals -0.781%

Known value: NanoLuc luciferase (NLuc) normalised percent inhibition of the molecule [Cl][Fe][Cl] [iron(II) chloride] equals -0.122%

Known value: NanoLuc luciferase (NLuc) normalised percent inhibition of the molecule O=[N+]([O-])[O-].O=[N+]([O-])[O-].[Zn+2] [zinc nitrate] equals 7.25%

Known value: NanoLuc luciferase (NLuc) normalised percent inhibition of the molecule CC#N.CC#N.CC#N.CC#N.F[B-](F)(F)F.[Cu+] [tetrakis(acetonitrile)copper(I) tetrafluoroborate] equals 9.53%

Known value: NanoLuc luciferase (NLuc) normalised percent inhibition of the molecule [Cl][Sn][Cl] [tin(II) chloride] equals -0.105%

* * *

# maps each entry to its normalised percent inhibition
Test system: NanoLuc luciferase (NLuc)
Assay: normalised percent inhibition of luminescence (vs positive and negative controls); higher = stronger inhibition
Details: metal salt concentration 0.05 mM; screening conditions buffer
Show the value, then the unit it is measured in.

Query [Cl][Fe][Cl] [iron(II) chloride] yields normalised percent inhibition of -5.75%

Query O=[N+]([O-])[O-].O=[N+]([O-])[O-].[Zn+2] [zinc nitrate] yields normalised percent inhibition of 35.8%

Query O=[N+]([O-])[O-].O=[N+]([O-])[O-].O=[N+]([O-])[O-].[Ga+3] [gallium(III) nitrate] yields normalised percent inhibition of 6.6%

Query O=[N+]([O-])[O-].[Ag+] [silver nitrate] yields normalised percent inhibition of 118%

Query O=S(=O)([O-])[O-].[Fe+2] [iron(II) sulfate] yields normalised percent inhibition of 11.5%

Query O=[N+]([O-])[O-].O=[N+]([O-])[O-].[Cu+2] [copper(II) nitrate] yields normalised percent inhibition of 136%

Query CC#N.CC#N.CC#N.CC#N.F[B-](F)(F)F.[Cu+] [tetrakis(acetonitrile)copper(I) tetrafluoroborate] yields normalised percent inhibition of 91.9%

Reference source: the supplement of paper PMC11628255
